I'd appreciate it if you could supply ED50 values for the items below.
# Tested on: Beta-adrenoceptor (Rattus norvegicus, UniProt P18090)
# Construct: from tissue; host or cells: heart in situ of anesthetized male Wistar rats (in vivo, i.v. dosing)
# Sequence (P18090 whole entry): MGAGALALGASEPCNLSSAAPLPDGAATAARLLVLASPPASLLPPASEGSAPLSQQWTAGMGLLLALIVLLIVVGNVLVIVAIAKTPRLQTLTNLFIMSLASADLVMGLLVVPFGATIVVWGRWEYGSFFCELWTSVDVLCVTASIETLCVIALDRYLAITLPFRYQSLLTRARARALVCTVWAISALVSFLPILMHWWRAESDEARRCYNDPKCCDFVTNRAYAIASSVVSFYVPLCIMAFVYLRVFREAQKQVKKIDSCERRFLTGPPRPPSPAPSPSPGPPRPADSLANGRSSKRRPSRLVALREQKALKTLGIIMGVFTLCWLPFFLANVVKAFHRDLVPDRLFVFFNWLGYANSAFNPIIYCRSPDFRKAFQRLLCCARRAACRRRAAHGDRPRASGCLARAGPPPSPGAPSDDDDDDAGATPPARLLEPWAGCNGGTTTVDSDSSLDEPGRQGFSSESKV
# Test protocol: Beta-adrenoceptor blocking effects: blockade of positive chronotropic response to isoproterenol
# Assay type: in vivo, male Wistar rats
# Measurement conditions: 50% blockade of chronotropic response to isoproterenol 0.1 μg/kg iv, reserpinized, vagotomized rats, cumulative dose, read-out: Beta Blocking ED50
One number for each entry, in mg/kg.

# annotated cases, reported ED50 shown
compound="COC(=O)C1=C(C)NC(C)=C(C(=O)OC)C1c1cc(OC)ccc1OCCCCNCC(O)COc1ccccc1 (stereo not drawn) [Example 26]" result_type=ED50 result_value=0.53
compound="COC(=O)C1=C(C)NC(C)=C(C(=O)OC)C1c1cc([N+](=O)[O-])ccc1OCCCCNC[C@H](O)COc1ccccc1 [Example 16]" result_type=ED50 result_value=0.39
compound="CCOC(=O)C1=C(C)NC(C)=C(C(=O)OCC)C1c1cc([N+](=O)[O-])ccc1OCCCCNCC(O)COc1ccccc1 (stereo not drawn) [Example 18]" result_type=ED50 result_value=3.11
compound="COC(=O)C1=C(C)NC(C)=C(C(=O)OC)C1c1cc([N+](=O)[O-])ccc1OCCNCC(O)COc1ccccc1 (stereo not drawn) [Example 1]" result_type=ED50 result_value=0.13
compound="COC(=O)C1=C(C)NC(C)=C(C(=O)OC)C1c1cc([N+](=O)[O-])ccc1OCCCNCC(O)COc1ccccc1 (stereo not drawn) [Example 8]" result_type=ED50 result_value=0.31

Let's switch to this compound now.
Record COC(=O)C1=C(C)NC(C)=C(C(=O)OC)C1c1cc(Cl)ccc1OCCCCNCC(O)COc1ccccc1 (stereo not drawn) [Example 24] , field ED50: 1.5
